system: HEK-293T; test: Multiplex assay against HEK293T; format: toxicity, cell-based; conditions: human, 24 h, 1 µM, compound concentration 1 uM, replicate 2
Below is a list of entries, each paired with its recorded Total Cell Count value.
Reply: number alone, nothing else.

Consider the reported Total Cell Count for these molecules:
COMPOUND STRUCTURE | PROPERTY | RECORDED RESULT
CC(=O)Nc1cccc2c1c(Sc1ccc(Cl)cc1)c(C)n2CC(=O)O | Total Cell Count | 398
N#Cc1c(Oc2cccc(OS(=O)(=O)CCCC(F)(F)F)c2)cccc1C(F)(F)F | Total Cell Count | 412

// returns reported Total Cell Count for input CCc1cc2cc(NS(=O)(=O)c3ccc(C#N)cc3)ccc2n(CC)c1=O 403
